Test system: RARg homodimer (NR concentration 270 nM)
Assay: PBM binding z-score (relative to random genomic background probes); higher = stronger binding; sequences stand for … in GC…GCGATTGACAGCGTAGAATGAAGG

{"seq_string": "CTATGTAGGTTAAGGGGGTCATTCGGTTTGAAAG", "tgt": "RARg homodimer (NR concentration 270 nM)", "PBM binding z-score": 3.97}
{"seq_string": "ATATGGAGGTTAGGGTCATTCAGAAAGTAGGGAA", "tgt": "RARg homodimer (NR concentration 270 nM)", "PBM binding z-score": 2.98}
{"seq_string": "CCTACTGGGGCAAAGGTCATTGATTCCAATGCTC", "tgt": "RARg homodimer (NR concentration 270 nM)", "PBM binding z-score": 4.61}
{"seq_string": "CCTACTGGGCCAAAAATGTCATTGATGCCGATAA", "tgt": "RARg homodimer (NR concentration 270 nM)", "PBM binding z-score": 0.087}
{"seq_string": "CCGAGTAGGTGACGAGGGGGCATTCAGTGCGAAT", "tgt": "RARg homodimer (NR concentration 270 nM)", "PBM binding z-score": 2.1}
{"seq_string": "CGAACTAGGTCACCAGTACAGTGAAGAGGTTGGA", "tgt": "RARg homodimer (NR concentration 270 nM)", "PBM binding z-score": 5.54}
{"seq_string": "CCGAGTAGGTTACGCGGGGGCATTCAGTGCGAAT", "tgt": "RARg homodimer (NR concentration 270 nM)", "PBM binding z-score": 2.15}
{"seq_string": "ATATGTAGGTTAGCTGGAGTCATTCAGACTAGGC", "tgt": "RARg homodimer (NR concentration 270 nM)", "PBM binding z-score": 0.683}
{"seq_string": "AATACAGGGTCACTAGGTCAGAGTAGGTACGAAT", "tgt": "RARg homodimer (NR concentration 270 nM)", "PBM binding z-score": 6.22}
{"seq_string": "CCGAGTACGTTACGAGGGGGCATTCAGTGCGAAT", "tgt": "RARg homodimer (NR concentration 270 nM)", "PBM binding z-score": 1.41}
{"seq_string": "CCTGCTAGTTCATGGTCAGCTAATCTACAGTATG", "tgt": "RARg homodimer (NR concentration 270 nM)", "PBM binding z-score": 1.06}
{"seq_string": "TAGCCTAGGTCATTCAGGGGGCAGTATAGAAAGC", "tgt": "RARg homodimer (NR concentration 270 nM)", "PBM binding z-score": 5.84}

----------
Test system: RARa homodimer (NR concentration 270 nM)
Assay: PBM binding z-score (relative to random genomic background probes); higher = stronger binding; sequences stand for … in GC…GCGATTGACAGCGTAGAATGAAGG
Each entry falls into one class according to its PBM binding z-score; the ranges are low bracket (below 0.2), middle bracket (0.2 to below 1), high bracket (1 or more)

{"seq_string": "CTATGTAGCTTAAGGGGGTCATTCAGTTTGAAAG", "label": "high bracket"}
{"seq_string": "CGTCCAAGGTCAGATAGGTCAGTGAATGCCGAGT", "label": "high bracket"}
{"seq_string": "TAGCCTAGGTCATGGGCCAGTTTACCACGCGAAC", "label": "low bracket"}
{"seq_string": "CCAGACAGGTGAAAGGTAACTCACTCTGGTACGC", "label": "low bracket"}
{"seq_string": "CCTACGGGGCCAAGGTCATTGATCAGTCAAAGCA", "label": "low bracket"}
{"seq_string": "TGAATGAGGTCAAAGATCAGGGAACGTGGCGTCG", "label": "high bracket"}
{"seq_string": "ATATGTAGGTTATCGGGTCATTCATTTTGCGCAT", "label": "high bracket"}
{"seq_string": "CCTTACCGGTCAAGGTTATAGCACGGGTGGTACG", "label": "middle bracket"}
{"seq_string": "CGAACTAGTTCAAAGGACAGTGAAAGGCGACGTA", "label": "low bracket"}
{"seq_string": "AATTCAGGGTCACTAGGCCAGAGTAGGTACGAAT", "label": "high bracket"}
{"seq_string": "TAGCCTAGGTCATTGGGCCAGTATAGTACGCATC", "label": "low bracket"}
{"seq_string": "CTCGAAAGGTCGGTTGAGGTGACTATACGGATAA", "label": "middle bracket"}
{"seq_string": "AGAATGAGGTTATACGTAGGTCAGGGAAGAAAGT", "label": "middle bracket"}
{"seq_string": "CCTAGTTGGTCAGGAGGTCCCACACCGGATATGA", "label": "middle bracket"}
{"seq_string": "CCTAGCAGGCCAGGGTCACCCAAGCATTTCGCTT", "label": "low bracket"}
{"seq_string": "TCGAGTAGGTTACGGGGGCATTTAGGGATGAAGA", "label": "middle bracket"}
{"seq_string": "CGAACTAGGTCAAAGGCCAGTGAAAGGCGACGTA", "label": "low bracket"}
{"seq_string": "CTATGTAGGTTAAGGGGGGCATTCAGTTTGAAAG", "label": "high bracket"}
{"seq_string": "ATATGTAGGTTAGCGGGGGTCATTCAGACTAGGC", "label": "high bracket"}
{"seq_string": "ACTAGTTGCTCAGCTGAGGTCACACACAATTCGG", "label": "middle bracket"}
{"seq_string": "TCTAGTAGGTTACGGGGGCATTCAGGGATGAAGA", "label": "high bracket"}
{"seq_string": "CCTCGGAGGACAACAGGAGGTCAAAGCTGCCAGA", "label": "middle bracket"}
{"seq_string": "CCGAGTAGGTTACGAGGCGGCATTCAGTGCGAAT", "label": "low bracket"}
{"seq_string": "TCTGCTTGGTCAACGATGGTCAGCTAATCTGCTA", "label": "low bracket"}
{"seq_string": "CTTTACGGGTCAAGGTTATAGCACGGGTGGTACG", "label": "middle bracket"}
{"seq_string": "CGAACTATGTCAAAGGACAGTGAAAGGCGACGTA", "label": "low bracket"}
{"seq_string": "CGAACTAGGTCAGAACAGTACAGTGAAGGATGAT", "label": "middle bracket"}
{"seq_string": "CAAACTAGGCCAAGGTCAAAGTCGGTTTGTGCCA", "label": "middle bracket"}
{"seq_string": "CAAACTAGGTCACGAAAGGTCAACGTCGAATGAC", "label": "high bracket"}
{"seq_string": "CCGAGTAGGTTACGAGGGTGCATTCAGTGCGAAT", "label": "low bracket"}
{"seq_string": "CTTTGTAGGTTAAGGGGGTCATTCAGTTTGAAAG", "label": "high bracket"}
{"seq_string": "TCGAGTAGGTTACGGGGGCATTCTGGGATGAAGA", "label": "low bracket"}
{"seq_string": "AGAATGAGGTTACCAAAGATCAGTGAAACGCTTG", "label": "middle bracket"}
{"seq_string": "CGAATTAGGTCAAAGGACAGTGAAAGGCGACGTA", "label": "middle bracket"}
{"seq_string": "CCTTACGGGTCACTCCAGGTTCTAGCATCGGAGT", "label": "middle bracket"}
{"seq_string": "AGTCAAAGTTGATCTAGGTAACGTAAGATATGCT", "label": "low bracket"}
{"seq_string": "TGGAGTAGGTTACGGGGGCATTCAGGGATGAAGA", "label": "high bracket"}
{"seq_string": "CAATCTAGGTCACAGAGGTCAAAGTCCGTGCGTA", "label": "high bracket"}
{"seq_string": "CCGAGTAGGTTACGAGGGGGCATTCAATGCGAAT", "label": "middle bracket"}
{"seq_string": "GATACAAGGTCAGCTAGAGGCCAGAGTATGGAAA", "label": "high bracket"}
{"seq_string": "CGTCCAAGGTCAGCAGGTCACTGAAAGCGACGTG", "label": "high bracket"}
{"seq_string": "CGCACTAGGTCACCAGGACAGTGAAGAGGTTGGA", "label": "middle bracket"}
{"seq_string": "ACTCGGAGGACAAACGTCAGAGCTACGCCAGTGA", "label": "low bracket"}
{"seq_string": "AATACAGGGTCACTGGGCCAGAGTAGGTACGAAT", "label": "high bracket"}
{"seq_string": "CCGAGTAGTTTACGAGGGGGCATTCAGTGCGAAT", "label": "low bracket"}
{"seq_string": "CTATGTAGGGTAAGGGGGTCATTCAGTTTGAAAG", "label": "high bracket"}
{"seq_string": "CTATGTAGGTTAAGGGGGTCACTCAGTTTGAAAG", "label": "high bracket"}
{"seq_string": "ATATGTAGGTTAGCTGGGGTCATTCCGACTAGGC", "label": "middle bracket"}
{"seq_string": "TTTCCAAGGTGAAAGGTCGTTGATGCACGCCTTG", "label": "low bracket"}
{"seq_string": "CAAACTAGGTCAAAGGTCAAAGTTGAGCCAACCA", "label": "high bracket"}
